system: Mycobacterium tuberculosis; assay: Antimycobacterial activity against Mycobacterium tuberculosis H37Rv by microplate alamar blue assay; type: functional; set-up: concentration or dose not given beside the values
property.measured: Inhibition (%)

# compound, assayed.system, numeric.value
rows = [
    ("CCCCOC(=O)CCSc1nnc(-c2ccc([N+](=O)[O-])s2)s1", "Mycobacterium tuberculosis", 98),
    ("CCOC(=O)C(C)[S+]([O-])c1nnc(-c2ccc([N+](=O)[O-])o2)s1 (centres undefined)", "Mycobacterium tuberculosis", 6),
    ("CCCCOC(=O)CCSc1nnc(-c2ccc([N+](=O)[O-])o2)s1", "Mycobacterium tuberculosis", 0),
    ("CCOC(=O)C(C)S(=O)(=O)c1nnc(-c2ccc([N+](=O)[O-])s2)s1 (centres undefined)", "Mycobacterium tuberculosis", 82),
    ("CCCOC(=O)CCSc1nnc(-c2ccc([N+](=O)[O-])o2)s1", "Mycobacterium tuberculosis", 0),
    ("CCOC(=O)C(C)Sc1nnc(-c2ncc([N+](=O)[O-])n2C)s1 (centres undefined)", "Mycobacterium tuberculosis", 90),
    ("CCCOC(=O)CCSc1nnc(-c2ccc([N+](=O)[O-])s2)s1", "Mycobacterium tuberculosis", 98),
    ("CCOC(=O)C(C)Sc1nnc(-c2ccc([N+](=O)[O-])s2)s1 (centres undefined)", "Mycobacterium tuberculosis", 92),
    ("CCOC(=O)CCSc1nnc(-c2ccc([N+](=O)[O-])s2)s1", "Mycobacterium tuberculosis", 26),
]

----------
tested on: Mycobacterium tuberculosis; assay: Antimycobacterial activity against Mycobacterium tuberculosis H37Rv by microplate alamar blue assay; type: functional; set-up: concentration or dose not given beside the values

# compound, unit.spec, Inhibition
rows = [
    ("CCOC(=O)C(C)Sc1nnc(-c2ccc([N+](=O)[O-])o2)s1 (stereo not given)", "%", 98),
    ("CCOC(=O)C(C)S(=O)(=O)c1nnc(-c2ncc([N+](=O)[O-])n2C)s1 (stereo not given)", "%", 100),
    ("CCOC(=O)C(C)[S+]([O-])c1nnc(-c2ccc([N+](=O)[O-])s2)s1 (stereo not given)", "%", 12),
    ("CCOC(=O)CCSc1nnc(-c2ccc([N+](=O)[O-])o2)s1", "%", 14),
    ("CCOC(=O)C(C)[S+]([O-])c1nnc(-c2ncc([N+](=O)[O-])n2C)s1 (stereo not given)", "%", 11),
    ("CCOC(=O)C(C)S(=O)(=O)c1nnc(-c2ccc([N+](=O)[O-])o2)s1 (stereo not given)", "%", 78),
    ("O=C(O)CCSc1nnc(-c2ccc([N+](=O)[O-])o2)s1", "%", 95),
    ("COC(=O)CCSc1nnc(-c2ccc([N+](=O)[O-])o2)s1", "%", 64),
    ("COC(=O)CCSc1nnc(-c2ccc([N+](=O)[O-])s2)s1", "%", 76),
    ("O=C(O)CCSc1nnc(-c2ccc([N+](=O)[O-])s2)s1", "%", 0),
]
